System: MS2 coat protein
protocolNotes: apparent KD of MS2 coat protein; designed switch direction (-1 OFF switch, 1 ON switch): -1; higher = weaker reporter binding
experimentalContext: input ligand: none
Could you label it MET if measured apparent KD of MS2 coat protein is 0.04 µM or higher, and NOT MET otherwise?

### Prompt Could you please find out whether GAAAACGAAGAGGAUAUAUGAUAUCAAAGCUUCAUAGAAGGCUUCACAUGAGGAUCACCCAUGUGAUCUUCAAA [jl-ex6-4.07 ViennaUCT mod] (Eterna round: R97, puzzle: Exclusion 6) has apparent KD of MS2 coat protein that meets 0.04 µM or exceeds it?
### Response NOT MET

### Prompt Could you please find out whether UUUUACAAGCUAAGAUCCUACAUGAGGAUCACCCAUGUGGUCCGGUGACGUGAGUCACCGGACUUAGCUCGUCUUGC [salish99_S_TOV1_R5_088] (Eterna round: R97, puzzle: Sensor, turn-off variant 1) has apparent KD of MS2 coat protein that meets 0.04 µM or exceeds it?
### Response MET

### Prompt Could you please find out whether GCUAGAGCAGGAUAUCUAGAUCCACACAUGAGGAUCACCCAUGUAUAGUCGAAAGACUAAAGAGAAGGGCUCUAGC [Omei Ex5 E14] (Eterna round: R97, puzzle: Exclusion 5) has apparent KD of MS2 coat protein that meets 0.04 µM or exceeds it?
### Response MET

### Prompt Could you please find out whether UUUUGGCAGGCAAUUAUUAACAUGAGGAUCACCCAUGUGCAUCCAAAAUUACUUUUAGAUCAAGCUCGUCUUAUAUA [JR_STOV1_Sub087] (Eterna round: R97, puzzle: Sensor, turn-off variant 1) has apparent KD of MS2 coat protein that meets 0.04 µM or exceeds it?
### Response NOT MET

### Prompt Could you please find out whether CAGUACUGAGGAUAUACAUGAGGAUCACCCAUGUGCUUCAGCUAGGAUACUAGCAUUAGUAGAAGGCAGUACUG [Fiskers Ex 3 828 mod 13] (Eterna round: R96, puzzle: Exclusion 3) has apparent KD of MS2 coat protein that meets 0.04 µM or exceeds it?
### Response NOT MET

### Prompt Could you please find out whether CGUAAGCUAGGAUAUGCUUUGGGAAAGCAUUCCUUCGAUAAACUUGAGGAUCACCCAAGUAGAAGGAGCUUACG [salish99_ex2_r4_010] (Eterna round: R97, puzzle: Exclusion 2) has apparent KD of MS2 coat protein that meets 0.04 µM or exceeds it?
### Response NOT MET

### Prompt Could you please find out whether UUCGUGCUGCUUUGCUGUACGAGUACAUGAGGAUCACCCAUGUAGGAUAUGGUACGCUUUGCGUGCUAGAAGGAUAUGUGUAGC [salish99_ExNG3_r04_505] (Eterna round: R96, puzzle: Exclusion NG 3) has apparent KD of MS2 coat protein that meets 0.04 µM or exceeds it?
### Response NOT MET

### Prompt Could you please find out whether CUGAUGUUAGGAUAUCAGGUCACGCGCGAAGGCGCGCGGCAUGAGAAGGAACAUGAGGAUCACCCAUGUGACGA [Reisquso] (Eterna round: R96, puzzle: Exclusion 4) has apparent KD of MS2 coat protein that meets 0.04 µM or exceeds it?
### Response MET

### Prompt Could you please find out whether GGCGAAGUAGGAUAUACAUGAGGAUCACCCAUGUAACCAGAUGGCGUAGGUCUUCUAUGUAGAAGGGCUACGCC [jl-ex3-4.34 ViennaUCT mod] (Eterna round: R97, puzzle: Exclusion 3) has apparent KD of MS2 coat protein that meets 0.04 µM or exceeds it?
### Response NOT MET
